# Tested on: SNB-75 CNS
# assay-comment: NCI-60 one-dose screen, 48 h (100 = growth as untreated, 0 = no growth, -100 = all killed)
# measurement-setup: 10 µM
The panel holds about 83,000 compounds, 20% with a hit somewhere; the sample as a whole holds those more often. The source made the active and inactive calls. The calls were made as follows: active = growth percent below 10; inactive = the rest.
Reported growth values for a set of compounds
measurement-type: growth

INSERT INTO measurements (compound, measured_on, data_value) VALUES
  ('O=C1/C(=C\c2ccc(Br)cc2)CN(C(=O)c2ccccc2F)C/C1=C\c1ccc(Br)cc1', 'SNB-75 CNS', '56.5% (inactive)'),
  ('Cc1cc(=O)[nH]c(N/N=C/c2ccccc2O)n1', 'SNB-75 CNS', '89% (inactive)'),
  ('C=C(NC(=O)C(=C)NC(=O)c1csc(C2=NC3c4csc(n4)C4NC(=O)c5csc(n5)C(C(C)(O)C(C)O)NC(=O)C5CSC(=N5)/C(=C/C)NC(=O)C(C(C)O)NC(=O)c5csc(n5)C3(CC2)NC(=O)C(C)NC(=O)C(=C)NC(=O)C(=C)NC(=O)C(C(C)C)NC2C=Cc3c(C(C)O)cc(nc3C2O)C(=O)OC4C)n1)C(N)=O (stereo not drawn)', 'SNB-75 CNS', '-10.9% (active)');

---

# System: DU-145 prostate
# assay-comment: NCI-60 one-dose screen, 48 h
# measurement-setup: 10 µM
The panel holds about 83,000 compounds, 20% with a hit somewhere; the sample as a whole holds those more often. Calls of active or inactive are those of the source. The calls were made as follows: active = growth percent below 10; inactive = the rest.
Classes used: class 1 (active), class 0 (inactive)

INSERT INTO results (compound, class_label) VALUES
  ('COc1cc(/C=N/NC(=O)c2ccccc2Nc2cccc(C(F)(F)F)c2)cc(OC)c1OC', 'class 1'),
  ('CN(C)CCNC(=O)c1cccn2c(=O)c3cc4ccccc4cc3nc12', 'class 1'),
  ('C#Cc1ccc(-n2c(/C=C/c3ccc(Cl)c(F)c3)nc3ncccc3c2=O)cc1', 'class 1'),
  ('CCN(CC)CCNc1ccc(CO)c2oc3cc(Cl)ccc3c(=O)c12', 'class 0'),
  ('COc1ccc2c(c1)/C(=C\c1c[nH]c3ccc(OC)cc13)C(=O)N2', 'class 0'),
  ('CNc1ccc(CSc2ccc(C)cc2)cc1', 'class 0'),
  ('CCCCCCN1C(=O)C2=C(c3ccc(Cl)cc3)Nc3c(c(C)nn3-c3ccccc3)C2c2ccccc21 (stereo unspecified)', 'class 0'),
  ('CS(=O)(=O)Nc1ccc(Nc2c3ccccc3nc3cc(N)ccc23)cc1', 'class 0'),
  ('Nc1c(C(=O)Nc2ccccc2)sc2nc3c(cc12)CCCC3', 'class 0'),
  ('CCCCCCN(CCCCCC)CC(O)c1ccc2c3c(cccc13)CC2 (stereo unspecified)', 'class 0'),
  ('COc1ccc(S(=O)(=O)NCCCNc2nccc(-c3c(-c4ccc(F)cc4)nc4sccn34)n2)cc1', 'class 0'),
  ('CCN1CCC2(CC1)OC(c1ccccc1)C(c1ccccc1)O2 (stereo unspecified)', 'class 0'),
  ('Clc1ccc(Sc2nc(NC3CC3)nc(Sc3ccc(Cl)cc3)n2)cc1', 'class 0'),
  ('O=C(Nc1cccc(-n2cc(-c3ccncc3)c(-c3ccc(O)c(Cl)c3)n2)c1)Nc1ccc(Cl)c(Cl)c1', 'class 0'),
  ('CCCCCCCCCCCCCCCCCC(=O)OCCCCCCC', 'class 0'),
  ('CC/C(=N\N=C(/CC)c1ccc(Br)cc1)c1ccc(Br)cc1', 'class 0'),
  ('COc1cc2nc(Nc3cccc(NC(C)=O)c3)nc(N)c2cc1OC', 'class 0'),
  ('COc1ccc(/C(=C2/O[C@@H]([C@H]3COC(C)(C)O3)[C@H]3OC(C)(C)O[C@@H]23)c2cc(OC)c(OC)c(OC)c2)cc1O', 'class 0'),
  ('COc1ccc(-c2nc3ccccn3c2-c2nnc(-c3cc(OC)c(OC)c(OC)c3)o2)cc1', 'class 0'),
  ('Cc1nc2oc3ccccc3c(=O)c2cc1C(=O)NCc1ccccc1', 'class 0'),
  ('Cc1cccc2c(NCCN(C)C)c3cccc(C(=O)NCCN(C)C)c3nc12', 'class 1');
